System: female stress-derived axillary odor
Test description: Cross-adaptation of female stress-derived axillary odor (odor panel, magnitude estimation of perceived intensity); note: key: best: Best = Superior Cross-Adaptation; good: Good = Adequate Cross-Adaptation; poor: Poor = Ineffective Cross-Adaptation
Type: in vivo, human
Conditions: female stress-derived odor perceived by women
Assay endpoint: Magnitude of Reduction of Intensity of Female Stress-Derived Odor (FSDO), Females

Compound	Val
CC(C=O)Cc1ccc(C(C)(C)C)cc1 (centres unmarked) [Lilial]	poor
C=CCCC(=O)C1=CCCC(C)(C)C1 [Dynascone 10]	good
CCCCCCOC(=O)c1ccccc1O [Hexyl Salicylate, hexyl-2-hydroxybenzoate]	good
C=CCOC(=O)COC1CCCCC1 [Isoananat, allyl cyclohexyloxyacetate]	poor
CCOC(=O)C=C(C)CC (single isomer, unassigned) [Z-isomer of 3-methyl-2-pentenoic acid ethyl ester, 3-methyl-2-pentenoic acid ethyl ester]	poor
